- tested-system: T1, human TIGIT on the cell surface (human, UniProt Q495A1 22-244)
- T1 construct: Expressed on engineered Jurkat cells or naturally on human primary CD8+ T cells (the cells are named under assay); also called Human TIGIT Jurkat; human TIGIT expressing Jurkat cells
- T1 sequence: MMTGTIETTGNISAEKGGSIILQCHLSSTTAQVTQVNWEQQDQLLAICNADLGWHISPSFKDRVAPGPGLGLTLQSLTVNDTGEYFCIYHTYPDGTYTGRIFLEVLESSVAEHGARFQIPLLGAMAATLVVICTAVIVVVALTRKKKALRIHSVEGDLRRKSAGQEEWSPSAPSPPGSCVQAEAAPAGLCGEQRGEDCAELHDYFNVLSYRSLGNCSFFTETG
- run-description: flow cytometry, antibody titrated against labeled PVR-Fc binding to human TIGIT Jurkat cells
Known pIC50 of a selection of binders
The read-out pIC50 is expressed as -log10 of concentration in moles per litre.

Query: Give pIC50 for the following binder: MAB2-IgG4 (antibody, V domains shown) VH: QLQLQESGPGLVKPSETLSLTCTVSGGSISSSKYYWGWIRQPPGKGLEWIGSIYYSGSTFYNPSLKSRVTISVDTSKNQFSLKLSSVTAADTAVYYCARDANYYGSAWAFDPWGQGTLVTVSS VL: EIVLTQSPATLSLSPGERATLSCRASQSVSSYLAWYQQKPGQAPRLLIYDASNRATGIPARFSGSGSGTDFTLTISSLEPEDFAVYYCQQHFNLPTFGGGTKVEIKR
Result: 8.64

Query: Please look at this binder and report its pIC50: MAB3-IgG4 (antibody, V domains shown) VH: QLQLQESGPGLVKPSETLSLTCTVSGGSISSTSHYWGWIRQPPGKGLEWIGSIYYSGSTFYNPSLKSRVTISVDTSKNQFSLKLSSVTAADTAVYYCARDANYYGSAWAFDPWGQGTLVTVSS VL: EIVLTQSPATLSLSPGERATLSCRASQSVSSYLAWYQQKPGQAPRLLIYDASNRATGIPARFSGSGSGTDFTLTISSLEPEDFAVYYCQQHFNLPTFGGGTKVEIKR
Result: 8.80

Query: Quick one: give measured pIC50 for MAB4-IgG4 (antibody, V domains shown) VH: QLQLQESGPGLVKPSETLSLTCTVSGGSISSTSHYWGWIRQPPGKGLEWIGSIYYSGSTFYNPSLKSRVTISVDTSKNQFSLKLSSVTAADTAVYYCARDANYYGGAWAFDPWGQGTLVTVSS VL: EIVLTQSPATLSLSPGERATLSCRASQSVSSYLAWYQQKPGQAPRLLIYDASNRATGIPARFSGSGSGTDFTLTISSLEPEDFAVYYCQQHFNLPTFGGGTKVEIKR
Result: 8.72

Query: Consider the binder MAB19-IgG4 (antibody, V domains shown) VH: QVQLVQSGAEVKKPGASVKVSCKASGYTFTSHYMGWVRQAPGQGLEWMGVINPSMGATSYAQKFQGRVTMTRDTSTSTVYMELSSLRSEDTAVYYCARLHVSGSYYPAYLDYWGQGTMVTVSS VL: EIVMTQSPATLSVSPGERATLSCRASQSVSSNLAWYQQKPGQAPRHLIYGASTRATGIPARFSGSGSGTEFTLTISSLQSEDFAVYYCQQYIVFPWTFGGGTKVEIKR and give its recorded pIC50.
Result: 8.19

Query: // fetch pIC50 given entry MAB5-IgG4 (antibody, V domains shown) VH: QLQLQESGPGLVKPSETLSLTCTVSGGSISSTSHYWGWIRQPPGKGLEWIGSIYYSGSTFYNPSLKGRVTISVDTSKNQFSLKLSSVTAADTAVYYCARDANYYGSAWAFDPWGQGTLVTVSS VL: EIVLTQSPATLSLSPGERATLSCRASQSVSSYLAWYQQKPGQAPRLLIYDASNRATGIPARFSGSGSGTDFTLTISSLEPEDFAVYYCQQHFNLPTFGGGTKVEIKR
Result: 8.77
